Entry source: the array DNA melting data of Ke et al.

Assay: melting temperature; melt of duplexes
Settings: sodium 0.0675 M; strand 1 µM
Exercise: for every item that follows, state its recorded Tm.
Provide the reading as a plain figure in °C.

Data point: CGACGTGCACCATGTGCTG+CAGCACATCAGGCACGTCG ((((((((...((((((((+))))))))...)))))))) ; Tm = 42.9

Data point: CGACGTGCGCGATGTGCTG+CAGCACATGTCGCACGTCG (((((((((..((((((((+))))))))..))))))))) ; Tm = 55.5

Data point: CGACGTGCGATATGTGCTG+CAGCACATTCCGCACGTCG (((((((((..((((((((+))))))))..))))))))) ; Tm = 53.8

Data point: CGACGTGCGTTATGTGCTG+CAGCACATGATGCACGTCG ((((((((.(.((((((((+)))))))).).)))))))) ; Tm = 54.6

---

Test: melting temperature; melt of duplexes
Conditions: sodium 0.0675 M; strand 1 µM
measured.parameter: Tm
In your response, the unit should come after the numeric value.

Data point: CGACGTGCCGCATGTGCTG+CAGCACATCGTGCACGTCG ((((((((...((((((((+))))))))...)))))))) ; Tm = 50.5 °C

Data point: CGACGTGCAGGATGTGCTG+CAGCACATGACGCACGTCG ((((((((...((((((((+))))))))...)))))))) ; Tm = 47.3 °C

Data point: CGACGTGCATAATGTGCTG+CAGCACATGTCGCACGTCG ((((((((...((((((((+))))))))...)))))))) ; Tm = 52.2 °C

Data point: CGACGTGCCTTATGTGCTG+CAGCACATCTAGCACGTCG ((((((((...((((((((+))))))))...)))))))) ; Tm = 48.1 °C

Data point: CGACGTGCACTATGTGCTG+CAGCACATTTGGCACGTCG ((((((((...((((((((+))))))))...)))))))) ; Tm = 45.3 °C

Data point: CGACGTGCGGAATGTGCTG+CAGCACATCCCGCACGTCG ((((((((((.((((((((+)))))))).)))))))))) ; Tm = 60.3 °C

Data point: CGACGTGCAGCATGTGCTG+CAGCACATGGAGCACGTCG ((((((((..(((((((((+)))))))))..)))))))) ; Tm = 54.1 °C

Data point: CGACGTGCGCTATGTGCTG+CAGCACATGTCGCACGTCG (((((((((..((((((((+))))))))..))))))))) ; Tm = 54.8 °C

Data point: CGACGTGCGTGATGTGCTG+CAGCACATTTAGCACGTCG ((((((((...((((((((+))))))))...)))))))) ; Tm = 53.6 °C

Data point: CGACGTGCAATATGTGCTG+CAGCACATCGCGCACGTCG ((((((((...((((((((+))))))))...)))))))) ; Tm = 47.4 °C

Data point: CGACGTGCAACATGTGCTG+CAGCACATCTTGCACGTCG ((((((((((.((((((((+)))))))).)))))))))) ; Tm = 52.5 °C

Data point: CGACGTGCCTTATGTGCTG+CAGCACATTGCGCACGTCG ((((((((...((((((((+))))))))...)))))))) ; Tm = 48.4 °C

Data point: CGACGTGCCGTATGTGCTG+CAGCACATCTTGCACGTCG ((((((((...((((((((+))))))))...)))))))) ; Tm = 48.5 °C

Data point: CGACGTGCCTGATGTGCTG+CAGCACATGCCGCACGTCG ((((((((...((((((((+))))))))...)))))))) ; Tm = 47.5 °C

Data point: CGACGTGCAGCATGTGCTG+CAGCACATCCGGCACGTCG ((((((((.(.((((((((+)))))))).).)))))))) ; Tm = 49 °C

Data point: CGACGTGCTGCATGTGCTG+CAGCACATGGTGCACGTCG ((((((((..(((((((((+)))))))))..)))))))) ; Tm = 54.2 °C

Data point: CGACGTGCGGGATGTGCTG+CAGCACATAGCGCACGTCG (((((((((..((((((((+))))))))..))))))))) ; Tm = 57.4 °C

Data point: CGACGTGCCCAATGTGCTG+CAGCACATTCTGCACGTCG ((((((((..(((((((((+)))))))))..)))))))) ; Tm = 49.9 °C

Data point: CGACGTGCGGCATGTGCTG+CAGCACATCTCGCACGTCG (((((((((..((((((((+))))))))..))))))))) ; Tm = 53.4 °C

Data point: CGACGTGCCCTATGTGCTG+CAGCACATTGTGCACGTCG ((((((((.(.((((((((+)))))))).).)))))))) ; Tm = 47.8 °C

Data point: CGACGTGCTTCATGTGCTG+CAGCACATGTGGCACGTCG ((((((((..(((((((((+)))))))))..)))))))) ; Tm = 54.8 °C

Data point: CGACGTGCAGAATGTGCTG+CAGCACATTGTGCACGTCG (((((((((.(((((((((+))))))))).))))))))) ; Tm = 55.8 °C

Data point: CGACGTGCATAATGTGCTG+CAGCACATAACGCACGTCG ((((((((.(.((((((((+)))))))).).)))))))) ; Tm = 48.8 °C

Data point: CGACGTGCGTTATGTGCTG+CAGCACATTCAGCACGTCG ((((((((...((((((((+))))))))...)))))))) ; Tm = 52.1 °C

Data point: CGACGTGCGATATGTGCTG+CAGCACATTACGCACGTCG (((((((((..((((((((+))))))))..))))))))) ; Tm = 54.7 °C

Data point: CGACGTGCGGGATGTGCTG+CAGCACATTTAGCACGTCG ((((((((...((((((((+))))))))...)))))))) ; Tm = 53.4 °C

Data point: CGACGTGCTAGATGTGCTG+CAGCACATAATGCACGTCG ((((((((...((((((((+))))))))...)))))))) ; Tm = 50.6 °C

Data point: CGACGTGCTGCATGTGCTG+CAGCACATGGGGCACGTCG ((((((((..(((((((((+)))))))))..)))))))) ; Tm = 57 °C

Data point: CGACGTGCACTATGTGCTG+CAGCACATGTTGCACGTCG (((((((((..((((((((+))))))))..))))))))) ; Tm = 48.9 °C
